# measuredOn: Apelin receptor (Homo sapiens) (UniProt P35414)
# Sequence (P35414 whole entry, looked up): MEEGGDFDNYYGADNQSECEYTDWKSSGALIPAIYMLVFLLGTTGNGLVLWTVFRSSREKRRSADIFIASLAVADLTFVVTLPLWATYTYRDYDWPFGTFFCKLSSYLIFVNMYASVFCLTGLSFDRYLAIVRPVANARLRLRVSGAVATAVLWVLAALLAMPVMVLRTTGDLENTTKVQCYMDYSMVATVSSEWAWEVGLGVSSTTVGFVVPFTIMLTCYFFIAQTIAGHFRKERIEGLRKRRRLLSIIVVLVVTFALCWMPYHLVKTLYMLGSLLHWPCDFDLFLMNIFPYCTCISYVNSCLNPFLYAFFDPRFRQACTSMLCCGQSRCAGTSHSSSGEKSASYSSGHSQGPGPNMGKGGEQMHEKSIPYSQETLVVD
# assayExplanation: APJ antagonists blocking beta-arrestin recruitment, confirmation, cell-based, luminescence, single concentration, uHTS hits (AID 2766)
# runParameters: antagonist mode, at 20 µM, hits give high values
The list shows a part of the results.
Hi, to clarify the labels: met covers inhibition from 60% upward, not met covers anything below 60%.

Req: Hi team, for `O=[N+]([O-])c1cc(Cl)cc(/C=N/NC(=S)Nc2cc(S(=O)(=O)N3CCOCC3)ccc2Cl)c1O` , is the recorded inhibition at or above 60%?
Resp: met

Req: Hi team, for `CC(=O)Nc1ccc(NC(=O)c2sc3nc4c(c(-c5ccc(C)cc5)c3c2N)CCC4)cc1` , is the recorded inhibition at or above 60%?
Resp: not met

Req: Hi team, for `Cc1cccc2cc3c(N)c(C(=O)N4CCCc5ccccc54)sc3nc12` , is the recorded inhibition at or above 60%?
Resp: not met

Req: Hi team, for `O=[N+]([O-])c1c(NCCO)cc(Sc2nc3ccccc3s2)c2nonc12` , is the recorded inhibition at or above 60%?
Resp: met

Req: Hi team, for CC1CC2=C(CC1/C=N/NC(N)=S)C(C)(C)CCC2 (stereo not given) , is the recorded inhibition at or above 60%?
Resp: met

* * *

# measuredOn: Apelin receptor (Homo sapiens) (UniProt P35414)
# assayExplanation: APJ antagonists blocking beta-arrestin recruitment, confirmation, cell-based, luminescence, single concentration, uHTS hits (AID 2766)
# runParameters: antagonist mode, at 20 µM
The other results are listed elsewhere or left out. Activity calls are given as the source filed them. Cut-off read from the data, not from the text of the source: active = inhibition above about 50%; inactive = the rest.
Mark one answer only. Choices: active, inactive

{"compound": "CCc1ccc2c(c1)C1(NN=C(c3ccccc3)S1)C(=O)N2 (stereo unspecified)", "qualitativeLabel": "inactive"}
{"compound": "Oc1ccc(N=Nc2nccs2)c(O)c1", "qualitativeLabel": "active"}
{"compound": "CSCCC(NC(=O)COc1ccccc1)C(=O)OCC(=O)c1cc2ccccc2o1 (stereo unspecified)", "qualitativeLabel": "active"}
{"compound": "CC(=O)C1=C(O)C(=O)N(c2ccc(S(N)(=O)=O)cc2)C1c1ccccc1F (stereo unspecified)", "qualitativeLabel": "inactive"}
{"compound": "COc1cc(NS(=O)(=O)c2ccc3ccccc3c2)c2ncccc2c1", "qualitativeLabel": "inactive"}

Then this compound:
Req: Assay result, entry `Cc1cc(/C=N/Nc2ccc([N+](=O)[O-])cn2)c(C)n1-c1cccc(C(=O)O)c1` — outcome?
Resp: active

* * *

# measuredOn: Apelin receptor (Homo sapiens) (UniProt P35414)
# assayExplanation: APJ antagonists blocking beta-arrestin recruitment, confirmation, cell-based, luminescence, single concentration, uHTS hits (AID 2766)
# runParameters: antagonist mode, at 20 µM
The list shows a part of the results. Activity calls are given as the source filed them. Cut-off read from the data, not from the text of the source: active = inhibition above about 50%; inactive = the rest.
Mark one answer only. Choices: t = active, f = inactive

Before answering, review these 2 worked examples.
{"moleculeSmiles": "O=C(CSc1cccc2cccnc12)N/N=C/c1cccnc1", "qualitativeLabel": "f"}
{"moleculeSmiles": "CN1/C(=c2/s/c(=C3/C(=O)N(c4ccccc4)NC3=Nc3ccccc3)n(C)c2=O)C(C)(C)c2ccccc21", "qualitativeLabel": "t"}

Then this molecule:
Req: Assay result, entry `COc1cccc2sc(Nc3nc(C)c(C(C)=O)s3)nc12` — outcome?
Resp: t

The reported numbers originate from PubChem BioAssay AID2766.
